Source: patent US20200131274A1

Biological target: T1, human prostate specific membrane antigen (PSMA), full-length, on cells (human, UniProt Q04609 1-750)
T1 construct: also called huPSMA; human PSMA
T1 sequence (Q04609 whole entry): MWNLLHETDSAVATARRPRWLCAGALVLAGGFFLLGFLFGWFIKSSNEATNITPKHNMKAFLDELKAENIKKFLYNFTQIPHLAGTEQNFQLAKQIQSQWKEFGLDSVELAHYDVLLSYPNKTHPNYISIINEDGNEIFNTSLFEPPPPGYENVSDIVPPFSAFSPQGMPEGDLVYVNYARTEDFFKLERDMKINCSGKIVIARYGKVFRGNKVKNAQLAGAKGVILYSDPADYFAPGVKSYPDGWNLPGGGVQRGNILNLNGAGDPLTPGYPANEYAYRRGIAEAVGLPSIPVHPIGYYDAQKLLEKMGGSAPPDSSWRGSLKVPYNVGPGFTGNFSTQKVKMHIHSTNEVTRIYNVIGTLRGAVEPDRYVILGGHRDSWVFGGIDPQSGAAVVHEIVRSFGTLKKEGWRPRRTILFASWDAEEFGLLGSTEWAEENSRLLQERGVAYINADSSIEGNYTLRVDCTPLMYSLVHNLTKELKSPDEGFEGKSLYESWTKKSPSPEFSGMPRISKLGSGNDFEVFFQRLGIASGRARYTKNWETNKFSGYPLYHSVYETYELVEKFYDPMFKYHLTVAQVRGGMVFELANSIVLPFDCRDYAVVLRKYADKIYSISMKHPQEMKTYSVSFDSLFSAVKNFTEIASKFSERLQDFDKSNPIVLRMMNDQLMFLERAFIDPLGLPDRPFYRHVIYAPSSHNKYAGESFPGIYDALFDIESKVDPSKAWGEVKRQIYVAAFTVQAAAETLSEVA
Assay: FMAT direct cell binding, CHO human PSMA cells
PROPERTY NAME: EC50 (pM)
Express your answer in pM, writing the number without its unit.

Sample records with EC50:
BINDER	EC50 / pM
single VH domain antibody 2.18 (VHH, Human single VH domain antibody (Humabody); C-terminal His tag, residues not tied) VHH: EVQLVESGGGVVQPGRSLRLSCAASGFSFSGYGQHWVRQAPGKGLEWVAYISYDASNKYYADNVKGRFTISRDNSKNTLYLQMNSLRAEDTAVYYCAKDPAWGLRLGESSSYDFDIWGQGTMVTVSS	104
single VH domain antibody 1.8 (VHH, Human single VH domain antibody (Humabody)) VHH: EVQLLESGGGLVQPGGSLRLSCAASGFSFSSYAMSWVRQAPGKGLEWVSSIGENDGTTDYADSVKGRFTISRDNSKNTLYLQMNSLRVEDTAVYYCVKDGVHWGQGTLVTVSS	103
single VH domain antibody 1.13 (VHH, Human single VH domain antibody (Humabody)) VHH: EVQLLESGGGLVQPGGSLRLSCAASGFSFSSYALSWVRQAPGKGLEWVSSIGENNHTTDYAADVKGRFTISRDNSKNTLYLQMNSLRVEDTAVYYCVKDGVHWGQGTLVTVSS	51.3
single VH domain antibody 1.10 (VHH, Human single VH domain antibody (Humabody)) VHH: EVQLLESGGGLVQPGGSLRLSCAASGFSFSSYALSWVRQAPGKGLEWVSSIGENNATTDYADFVKGRFTISRDNSKNTLYLQMNSLRVEDTAVYYCVKDGVHWGQGTLVTVSS	71.8
single VH domain antibody 2.17 (VHH, Human single VH domain antibody (Humabody); C-terminal His tag, residues not tied) VHH: EVQLVESGGGVVQPGRSLRLSCAASGFSFSGYGMHWVRQAPGKGLEWVAYISYDASNKYYADNVKGRFTISRDNSKNTLYLQMNSLRAEDTAVYYCAKDPAWGLRLGESSSYDFDIWGQGTMVTVSS	100
single VH domain antibody 1.16 (VHH, Human single VH domain antibody (Humabody)) VHH: EVQLLESGGGLVQPGGSLRLSCAASGFSFSSYALSWVRQAPGKGLEWVSSIGENNHTTDYADTVKGRFTISRDNSKNTLYLQMNSLRVEDTAVYYCVKDGVHWGQGTLVTVSS	68

Incoming: Any idea what its EC50 is? The binder is single VH domain antibody 1.11 (VHH, Human single VH domain antibody (Humabody)) VHH: EVQLLESGGGLVQPGGSLRLSCAASGFSFSSYALSWVRQAPGKGLEWVSSIGENNDTTDYADNVKGRFTISRDNSKNTLYLQMNSLRVEDTAVYYCVKDGVHWGQGTLVTVSS
Outgoing: 86.3

Incoming: Any idea what its EC50 is? The binder is single VH domain antibody 1.14 (VHH, Human single VH domain antibody (Humabody)) VHH: EVQLLESGGGLVQPGGSLRLSCAASGFSFSSYALSWVRQAPGKGLEWVSSIGENNATTDYADVVKGRFTISRDNSKNTLYLQMNSLRVEDTAVYYCVKDGVHWGQGTLVTVSS
Outgoing: 58.8
